# target_entity: Recombinant Human Ketohexokinase (KHK) (Homo sapiens (Human), UniProt P50053)
# Sequence (P50053 whole entry): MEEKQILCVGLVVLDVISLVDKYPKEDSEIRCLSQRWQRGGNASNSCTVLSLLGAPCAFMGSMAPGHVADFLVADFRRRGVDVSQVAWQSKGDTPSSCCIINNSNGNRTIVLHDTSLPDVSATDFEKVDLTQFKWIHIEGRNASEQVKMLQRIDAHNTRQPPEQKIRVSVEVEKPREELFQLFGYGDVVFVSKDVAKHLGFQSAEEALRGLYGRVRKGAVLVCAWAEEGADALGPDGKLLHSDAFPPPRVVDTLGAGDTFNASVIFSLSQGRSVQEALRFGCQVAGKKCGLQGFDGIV
# procedure_details: Ketohexokinase assay (KHK assay), ADP-Glo
pIC50: −log10 of the molar value.
Each entry gets FALSE if its pIC50 stays under 7, and TRUE if its pIC50 is 7 or above.

{"compound": "C[C@H]1CCN1c1nc(N2C[C@@H]3[C@@H](CC(=O)O)[C@@H]3C2)c2cc(Cl)sc2n1", "assigned_category": "TRUE"}
{"compound": "C[C@H]1CCN1c1nc(N2CCC3(CC3C(=O)O)C2)c2ccsc2n1 (stereo partly drawn)", "assigned_category": "FALSE"}
{"compound": "Cc1csc2nc(N3CC[C@@H]3C)nc(Nc3ccc(CC(=O)O)cc3)c12", "assigned_category": "TRUE"}
